Recorded AC50 by entry
- assay_system: D(3) dopamine receptor (Homo sapiens); note: assay procedure not described here
- Sequence (P35462 whole entry): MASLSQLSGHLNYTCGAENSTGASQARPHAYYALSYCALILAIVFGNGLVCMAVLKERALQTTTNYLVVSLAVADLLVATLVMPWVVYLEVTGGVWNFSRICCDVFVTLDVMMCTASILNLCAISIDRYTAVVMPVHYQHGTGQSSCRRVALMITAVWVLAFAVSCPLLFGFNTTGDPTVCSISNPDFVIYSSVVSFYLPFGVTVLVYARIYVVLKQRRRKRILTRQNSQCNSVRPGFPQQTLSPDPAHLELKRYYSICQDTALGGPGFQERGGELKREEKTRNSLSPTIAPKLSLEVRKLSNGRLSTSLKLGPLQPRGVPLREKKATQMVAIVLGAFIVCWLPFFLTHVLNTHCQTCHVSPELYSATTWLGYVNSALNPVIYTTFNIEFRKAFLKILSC

Consider the following illustrative entries.
# compound, value_measured
measured = [
    ("N[C@@H](CC(=O)N1CCn2c(nnc2C(F)(F)F)C1)Cc1cc(F)c(F)cc1F [SITAGLIPTIN]", "> 30 µM"),
    ("CC(=O)O[C@H](CC(=O)[O-])C[N+](C)(C)C [ACETYLCARNITINE]", "> 30 µM"),
    ("COc1ccccc1OCCNCC(O)COc1cccc2[nH]c3ccccc3c12 (centres undefined) [CARVEDILOL]", "0.47 µM"),
    ("CCC(COC(=O)c1cc(OC)c(OC)c(OC)c1)(c1ccccc1)N(C)C (centres undefined) [TRIMEBUTINE]", "> 30 µM"),
    ("CCN(CC)CCNC(=O)c1c(C)[nH]c(/C=C2\\C(=O)Nc3ccc(F)cc32)c1C [SUNITINIB]", "1.94 µM"),
]

Incoming: Query for D(3) dopamine receptor (Homo sapiens): what AC50 does the record show for CC(C)c1nc(N(C)S(C)(=O)=O)nc(-c2ccc(F)cc2)c1/C=C/[C@@H](O)C[C@@H](O)CC(=O)O [ROSUVASTATIN] ?
Outgoing: > 30 µM

Incoming: Query for D(3) dopamine receptor (Homo sapiens): what AC50 does the record show for Cc1cccc(N2CC(CO)OC2=O)c1 (centres undefined) [TOLOXATONE] ?
Outgoing: > 30 µM

Incoming: Query for D(3) dopamine receptor (Homo sapiens): what AC50 does the record show for C=C1/C(=C\C=C2/CCC[C@]3(C)[C@@H]([C@H](C)/C=C/[C@@H](O)C4CC4)CC[C@@H]23)C[C@@H](O)C[C@@H]1O [CALCIPOTRIENE] ?
Outgoing: > 30 µM

Incoming: Query for D(3) dopamine receptor (Homo sapiens): what AC50 does the record show for CC(C(=O)O)c1ccc(CC2CCCC2=O)cc1 (centres undefined) [LOXOPROFEN] ?
Outgoing: > 30 µM

###

Recorded AC50 values (UniProtKB P32245) are given below.
Sequence (P32245 whole entry): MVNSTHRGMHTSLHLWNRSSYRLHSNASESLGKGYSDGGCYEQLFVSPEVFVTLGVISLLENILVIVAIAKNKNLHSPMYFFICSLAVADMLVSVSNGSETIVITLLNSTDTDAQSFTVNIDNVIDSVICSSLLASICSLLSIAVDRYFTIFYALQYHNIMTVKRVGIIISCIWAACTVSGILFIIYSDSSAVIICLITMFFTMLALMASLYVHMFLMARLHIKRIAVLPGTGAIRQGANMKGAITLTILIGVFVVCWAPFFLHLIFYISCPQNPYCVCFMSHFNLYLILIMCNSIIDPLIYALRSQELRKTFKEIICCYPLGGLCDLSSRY

# compound, value_measured
rows = [
    ("COc1ccc(CC2c3cc(OC)c(OC)cc3CC[N+]2(C)CCC(=O)OCCCCCOC(=O)CC[N+]2(C)CCc3cc(OC)c(OC)cc3C2Cc2ccc(OC)c(OC)c2)cc1OC (stereo unspecified)", "> 30 µM"),
]

Incoming: Query for UniProtKB P32245: what AC50 does the record show for C[C@]12C=CC(=O)N[C@@H]1CC[C@@H]1[C@@H]2CC[C@]2(C)[C@@H](C(=O)Nc3cc(C(F)(F)F)ccc3C(F)(F)F)CC[C@@H]12 [DUTASTERIDE] ?
Outgoing: > 10 µM

Incoming: Query for UniProtKB P32245: what AC50 does the record show for Cc1onc(-c2ccccc2)c1-c1ccc(S(N)(=O)=O)cc1 ?
Outgoing: > 30 µM

Incoming: Query for UniProtKB P32245: what AC50 does the record show for CNCc1ccc(-c2[nH]c3cc(F)cc4c3c2CCNC4=O)cc1 ?
Outgoing: > 30 µM

Incoming: Query for UniProtKB P32245: what AC50 does the record show for CC1OC2(CS1)CN1CCC2CC1 (stereo unspecified) ?
Outgoing: > 10 µM

Incoming: Query for UniProtKB P32245: what AC50 does the record show for CCCCC(=O)O[C@]1(C(=O)CO)[C@@H](C)C[C@H]2[C@@H]3CCC4=CC(=O)C=C[C@]4(C)[C@@]3(F)[C@@H](O)C[C@@]21C [BETAMETHASONE VALERATE] ?
Outgoing: > 30 µM

Incoming: Query for UniProtKB P32245: what AC50 does the record show for Cc1cc2cc3c(C)cc(=O)oc3c(C)c2o1 ?
Outgoing: > 10 µM

Incoming: Query for UniProtKB P32245: what AC50 does the record show for OC1(c2ccc(Cl)cc2)c2ccccc2C2=NCCN21 (stereo unspecified) ?
Outgoing: > 30 µM

Incoming: Query for UniProtKB P32245: what AC50 does the record show for C=C[C@H]1C[N@@]2CC[C@H]1C[C@@H]2[C@@H](O)c1ccnc2ccc(OC)cc12 ?
Outgoing: > 30 µM

Incoming: Query for UniProtKB P32245: what AC50 does the record show for CCCCCC(=O)O[C@]1(C(C)=O)CC[C@H]2[C@@H]3CCC4=CC(=O)CC[C@]4(C)[C@H]3CC[C@@]21C [HYDROXYPROGESTERONE CAPROATE] ?
Outgoing: > 30 µM

Incoming: Query for UniProtKB P32245: what AC50 does the record show for CCCC(CCC)C(=O)O ?
Outgoing: > 30 µM

Incoming: Query for UniProtKB P32245: what AC50 does the record show for CC(C)(C)C(=O)OCC(=O)[C@H]1CC[C@H]2[C@@H]3CCC4=CC(=O)CC[C@]4(C)[C@H]3CC[C@]12C [DESOXYCORTICOSTERONE PIVALATE] ?
Outgoing: > 10 µM

Incoming: Query for UniProtKB P32245: what AC50 does the record show for CC1=C(C)C(=O)C(C(CCCCCC(=O)O)c2ccccc2)=C(C)C1=O (stereo unspecified) ?
Outgoing: > 30 µM

###

Recorded AC50 values (5-hydroxytryptamine receptor 6 (Homo sapiens)) are given below.

# compound, assay_system, AC50
measured = [
    ("CN(C)CCc1c[nH]c2ccc(Cn3cncn3)cc12 [RIZATRIPTAN]", "5-hydroxytryptamine receptor 6 (Homo sapiens)", "> 10 µM"),
    ("N[C@@H](CC(=O)N1CCn2c(nnc2C(F)(F)F)C1)Cc1cc(F)c(F)cc1F [SITAGLIPTIN]", "5-hydroxytryptamine receptor 6 (Homo sapiens)", "> 10 µM"),
    ("OC1(c2ccc(Cl)cc2)c2ccccc2C2=NCCN21 (stereo not given) [MAZINDOL]", "5-hydroxytryptamine receptor 6 (Homo sapiens)", "> 10 µM"),
    ("Cc1cnc(C(=O)NCCc2ccc(S(=O)(=O)NC(=O)NC3CCCCC3)cc2)cn1 [GLIPIZIDE]", "5-hydroxytryptamine receptor 6 (Homo sapiens)", "> 10 µM"),
    ("Cc1onc(-c2ccccc2)c1-c1ccc(S(N)(=O)=O)cc1 [VALDECOXIB]", "5-hydroxytryptamine receptor 6 (Homo sapiens)", "> 10 µM"),
    ("CN1CCN(C2=Nc3ccccc3Oc3ccc(Cl)cc32)CC1 [LOXAPINE]", "5-hydroxytryptamine receptor 6 (Homo sapiens)", "0.0574 µM"),
    ("COc1ccccc1OCCNCC(O)COc1cccc2[nH]c3ccccc3c12 (stereo not given) [CARVEDILOL]", "5-hydroxytryptamine receptor 6 (Homo sapiens)", "1.25 µM"),
    ("CCCC(CCC)C(=O)O [VALPROIC ACID]", "5-hydroxytryptamine receptor 6 (Homo sapiens)", "> 10 µM"),
]

Incoming: Query for 5-hydroxytryptamine receptor 6 (Homo sapiens): what AC50 does the record show for Cn1c(=O)cc(N2CCC[C@@H](N)C2)n(Cc2ccccc2C#N)c1=O [ALOGLIPTIN] ?
Outgoing: > 10 µM

Incoming: Query for 5-hydroxytryptamine receptor 6 (Homo sapiens): what AC50 does the record show for CCN(CC)CCNC(=O)c1c(C)[nH]c(/C=C2\C(=O)Nc3ccc(F)cc32)c1C [SUNITINIB] ?
Outgoing: 2.39 µM

Incoming: Query for 5-hydroxytryptamine receptor 6 (Homo sapiens): what AC50 does the record show for CC(C)Cc1ccc(C(C)C(=O)O)cc1 (stereo not given) [IBUPROFEN] ?
Outgoing: > 10 µM

Incoming: Query for 5-hydroxytryptamine receptor 6 (Homo sapiens): what AC50 does the record show for C=CC[C@@H]1/C=C(\C)C[C@H](C)C[C@H](OC)[C@H]2O[C@@](O)(C(=O)C(=O)N3CCCC[C@H]3C(=O)O[C@H](/C(C)=C/[C@@H]3CC[C@@H](O)[C@H](OC)C3)[C@H](C)[C@@H](O)CC1=O)[C@H](C)C[C@@H]2OC [TACROLIMUS ANHYDROUS] ?
Outgoing: > 10 µM

Incoming: Query for 5-hydroxytryptamine receptor 6 (Homo sapiens): what AC50 does the record show for CO[C@H]1/C=C/O[C@@]2(C)Oc3c(C)c(O)c4c(O)c(c(/C=N/N5CCN(C)CC5)c(O)c4c3C2=O)NC(=O)/C(C)=C\C=C\[C@H](C)[C@H](O)[C@@H](C)[C@@H](O)[C@@H](C)[C@H](OC(C)=O)[C@@H]1C [RIFAMPIN] ?
Outgoing: > 10 µM

Incoming: Query for 5-hydroxytryptamine receptor 6 (Homo sapiens): what AC50 does the record show for CC(N)C(O)c1ccccc1 (stereo not given) [PHENYLPROPANOLAMINE] ?
Outgoing: > 10 µM

Incoming: Query for 5-hydroxytryptamine receptor 6 (Homo sapiens): what AC50 does the record show for CCCN(CCC)C(=O)Cc1c(-c2ccc(Cl)cc2)nc2ccc(Cl)cn12 [ALPIDEM] ?
Outgoing: > 10 µM

###

Recorded AC50 by entry
- assay_system: Prothrombin (Homo sapiens, UniProt P00734); note: assay procedure not described here
- Format: functional

Consider the following illustrative entries.
# compound, value_measured
records = [
    ("CN(C)CCOC(c1ccccc1)c1ccc(Br)cc1 (centres undefined) [BROMODIPHENHYDRAMINE]", "> 30 µM"),
    ("C=C1CC[C@H](O)C/C1=C/C=C1\\CCC[C@]2(C)[C@@H]([C@H](C)/C=C/[C@H](C)C(C)C)CC[C@@H]12 [ERGOCALCIFEROL]", "> 30 µM"),
]

Incoming: So what does the record say about AC50 for CCN(CCCc1ccccc1)CCCc1ccccc1 [ALVERINE] ?
Outgoing: > 30 µM

Incoming: So what does the record say about AC50 for CN1C(C(=O)Nc2ccccn2)=C(O)c2ccccc2S1(=O)=O [PIROXICAM] ?
Outgoing: > 30 µM

Incoming: So what does the record say about AC50 for CC(C)Cc1ccc(C(C)C(=O)O)cc1 (centres undefined) [IBUPROFEN] ?
Outgoing: > 30 µM

Incoming: So what does the record say about AC50 for CC(C)(C)NC[C@H](O)COc1cccc2c1CCCC2=O [LEVOBUNOLOL] ?
Outgoing: > 30 µM
